Target: Coagulation factor XII (Homo sapiens) (UniProt P00748)
Sequence (P00748 20-372 limits assumed): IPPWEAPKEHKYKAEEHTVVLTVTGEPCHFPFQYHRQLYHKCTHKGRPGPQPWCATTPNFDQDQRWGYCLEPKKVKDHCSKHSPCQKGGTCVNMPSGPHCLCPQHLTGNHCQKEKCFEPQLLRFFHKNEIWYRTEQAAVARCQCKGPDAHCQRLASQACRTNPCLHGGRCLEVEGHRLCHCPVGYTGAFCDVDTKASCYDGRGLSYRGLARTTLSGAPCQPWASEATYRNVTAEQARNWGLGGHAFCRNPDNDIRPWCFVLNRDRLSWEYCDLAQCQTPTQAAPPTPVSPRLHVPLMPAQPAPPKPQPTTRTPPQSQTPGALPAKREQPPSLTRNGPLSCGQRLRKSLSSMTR
Sequence (P00748 373-615 limits assumed): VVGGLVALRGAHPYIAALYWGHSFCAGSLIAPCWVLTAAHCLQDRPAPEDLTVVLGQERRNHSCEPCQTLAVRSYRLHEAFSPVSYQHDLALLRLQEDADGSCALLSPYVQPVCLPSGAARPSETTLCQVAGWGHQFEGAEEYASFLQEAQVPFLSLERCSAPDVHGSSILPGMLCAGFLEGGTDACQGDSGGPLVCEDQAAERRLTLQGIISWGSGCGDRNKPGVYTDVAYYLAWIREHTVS
Assay: human FXIIa protease inhibitors, primary screen, biochemical, single well (AID 701);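 further: 0% = enzyme with vehicle only and 100% = no enzyme blank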
Conditions: purified human FXIIa, AMC substrate fluorescence, 2 h; at 10 µM; hits give high values
The campaign covered roughly 33,000 compounds. About 70 (0.2%) were called active. These entries were drawn from the full list.
compounds and their reported inhibition
Record the value in %, omitting the unit from your answer.

Example results:
INSERT INTO assay_data (compound, unit_spec, measured_number) VALUES
  ('COC(=O)C1C(=O)NCC1c1ccc(C)cc1 (stereo unspecified)', '%', 4.77),
  ('O=S(=O)(N1CCCCC1)N1CCNCC1', '%', 4.16),
  ('CC(=O)N1CCCc2cc(S(=O)(=O)CCC(=O)N3CCN(c4ccccc4)CC3)ccc21', '%', -16.3),
  ('O=C(Cc1c(O)c2ccccc2[nH]c1=O)NCc1ccccc1', '%', -1.57),
  ('Cc1nnc(OCC(=O)NCCC2=CCCCC2)c2ccccc12', '%', 11.9);

Endpoint output: inhibition of CCCCCCOc1ccc(OC(=O)c2cccnc2)cc1 . Value?
4.38

Endpoint output: inhibition of N#CC1=C(N)N(c2ccccc2)C2=C(C(=O)CCC2)C1c1ccccc1 (stereo unspecified) . Value?
6.03

Endpoint output: inhibition of O=C(NCc1ccccc1)C1CCCN(S(=O)(=O)c2cccs2)C1 (stereo unspecified) . Value?
3.39

====

compounds and their reported inhibition
Target: Coagulation factor XII (Homo sapiens)
Test: human FXIIa protease inhibitors, primary screen, biochemical, single well (AID 701);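 further: 0% = enzyme with vehicle only and 100% = no enzyme blank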
Details: purified human FXIIa, AMC substrate fluorescence, 2 h; at 10 µM; hits give high values
In all, about 33,000 compounds went through this assay and about 70 (0.2%) were called active. The list is a sample of the results.
Record the value in %, omitting the unit from your answer.

INSERT INTO results (compound, measured_number) VALUES
  ('CCOC(=O)c1cnc(SCc2nc(N)nc(Nc3ccc(OC)cc3)n2)nc1N', 2.04),
  ('COc1ccc(C(=O)NNC(=O)c2cnccn2)cc1[N+](=O)[O-]', 6.61),
  ('CC(C)(C)c1ccc(OC2=CS(=O)(=O)c3ccccc32)cc1', 6.47);

Endpoint output: inhibition of CC1=C(C(N)=O)C(c2sccc2C)n2nnnc2N1 (configuration not stated) . Value?
3.63

Endpoint output: inhibition of CCS(=O)(=O)c1ccc2oc(SCC(=O)N3c4ccccc4CC3C)nc2c1 (configuration not stated) . Value?
11.8

Endpoint output: inhibition of COC(=O)c1ccccc1NC(=O)Cc1ccccc1OC . Value?
1.04

Endpoint output: inhibition of CC1(C)N=C(c2ccccn2)C(C)(C)N1O . Value?
-0.08

Endpoint output: inhibition of Cc1ccc(-n2nc3c(c2NC(=O)CCC2CCCCC2)CS(=O)C3)cc1 (configuration not stated) . Value?
2.44

Endpoint output: inhibition of OC(COc1cccc(OCC(O)CN2CCCC2)c1)CN1CCCC1 (configuration not stated) . Value?
1.91

====

Target: Coagulation factor XII (Homo sapiens)
Test: human FXIIa protease inhibitors, primary screen, biochemical, single well (AID 701);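 further: 0% = enzyme with vehicle only and 100% = no enzyme blank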
Conditions: purified human FXIIa, AMC substrate fluorescence, 2 h; at 10 µM; hits give high values
Out of some 33,000 compounds screened, about 70 (0.2%) were called active. Only a sample is shown.
ENDPOINT LABEL: inhibition (%)
Record the value in %, omitting the unit from your answer.

Example results:
INSERT INTO measurements (compound, unit_spec, measured_number) VALUES
  ('CCOC(=O)c1ccc2c(c1)nc(C)n2CC', '%', 2.03),
  ('CCCCCOC(=O)c1ccc(N2C(=O)C3C4C=CC(C4)C3C2=O)cc1 (stereo not given)', '%', -10.2),
  ('COCCNC(=O)COc1ccc(C)c(C)c1', '%', 5.6);

Endpoint output: inhibition of O=C(N/N=C/C=C/c1ccccc1)C1CC1(c1ccccc1)c1ccccc1 (stereo not given) . Value?
7.46

Endpoint output: inhibition of Cc1nnc(NCCO)c2ccccc12 . Value?
-0.65

Endpoint output: inhibition of CCOc1ccc(N(CC(=O)NC2CCCCCC2)S(=O)(=O)c2c(C)[nH]c(=O)[nH]c2=O)cc1 . Value?
-0.15

Endpoint output: inhibition of CCOC(=O)c1c(NC(C)=O)sc2c(O)c(Br)ccc12 . Value?
5.45

====

Biological target: Coagulation factor XII (Homo sapiens)
Test: human FXIIa protease inhibitors, primary screen, biochemical, single well (AID 701);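 further: 0% = enzyme with vehicle only and 100% = no enzyme blank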
Details: purified human FXIIa, AMC substrate fluorescence, 2 h; at 10 µM; hits give high values
The whole screen tested about 33,000 compounds, of which about 70 (0.2%) were called active. Only a sample is shown.
compounds and their reported inhibition
Record the value in %, omitting the unit from your answer.

INSERT INTO results (compound, target_or_system, measured_number) VALUES
  ('Cc1ccc(OC(=O)c2ccccc2C(=O)OCC(F)(F)C(F)F)cc1', 'Coagulation factor XII (Homo sapiens)', 5.93),
  ('Cc1cc(C(=O)Nc2c(C)nn(Cc3ccccc3)c2C)on1', 'Coagulation factor XII (Homo sapiens)', 3.84),
  ('O=C(NCCCn1ccnc1)Nc1ccc(Cl)cc1Cl', 'Coagulation factor XII (Homo sapiens)', -12),
  ('CCCc1nnc(NC(=O)c2cccs2)s1', 'Coagulation factor XII (Homo sapiens)', 4.48);

For Coagulation factor XII (Homo sapiens), provide inhibition of CCOc1ccc(NC(=O)c2ccccc2NS(C)(=O)=O)cc1 please.
7.81

For Coagulation factor XII (Homo sapiens), provide inhibition of Cc1cccc(NC(=O)CSc2nc3c(c(=O)[nH]2)CCCC3)c1C please.
7.72

For Coagulation factor XII (Homo sapiens), provide inhibition of C=CCNC(=O)C1CC=CCC1C(=O)O (stereo not drawn) please.
5.98

For Coagulation factor XII (Homo sapiens), provide inhibition of O=C(O)CCN=C1CCc2ccccc2N1 please.
6.9

====

Biological target: Coagulation factor XII (Homo sapiens) (UniProt P00748)
Test: human FXIIa protease inhibitors, primary screen, biochemical, single well (AID 701);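 further: 0% = enzyme with vehicle only and 100% = no enzyme blank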
Settings: purified human FXIIa, AMC substrate fluorescence, 2 h; at 10 µM; hits give high values
Out of some 33,000 compounds screened, about 70 (0.2%) were called active. The list is a sample of the results.
ENDPOINT LABEL: inhibition (%)
Record the value in %, omitting the unit from your answer.

Example results:
INSERT INTO measurements (compound, endpoint_label, measured_number) VALUES
  ('CSc1ccccc1NC(=O)c1cc(C2CC2)on1', 'inhibition', 5.73),
  ('Cc1nc2c(-c3ccc(F)cc3)c(C)nn2c(C)c1CCC(=O)NCc1ccco1', 'inhibition', 2.8),
  ('COc1ccc(Cl)cc1C(=O)NCc1cn(C)nc1C', 'inhibition', 7.49),
  ('Cc1cc(NC(=O)CCC(=O)N(CC(=O)NCC2CCCO2)c2ccccc2C)no1 (stereo not drawn)', 'inhibition', 4.76);

Endpoint output: inhibition of Cc1cc(S(=O)(=O)NC2CCCCC2)ccc1OCC(=O)NCc1cccnc1 . Value?
-2.34

Endpoint output: inhibition of CC1CC(C)CN(C(=O)CSc2nnc(CSc3ncccn3)n2C)C1 (stereo not drawn) . Value?
1.36

Endpoint output: inhibition of Cc1cccc(-n2ncc3c(N4CCc5ccccc54)ncnc32)c1 . Value?
4.16

Endpoint output: inhibition of CC(C)CCNC(=O)CC1C(=O)N(Cc2ccccc2)C(C)c2nc3ccccc3n21 (stereo not drawn) . Value?
5.26

====

Molecular target: Coagulation factor XII (Homo sapiens)
Experiment: human FXIIa protease inhibitors, primary screen, biochemical, single well (AID 701);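 further: 0% = enzyme with vehicle only and 100% = no enzyme blank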
Details: purified human FXIIa, AMC substrate fluorescence, 2 h; at 10 µM; hits give high values
Screen size: about 33,000 compounds; about 70 (0.2%) were called active. The list is a sample of the results.
ENDPOINT LABEL: inhibition (%)
Record the value in %, omitting the unit from your answer.

Endpoint output: inhibition of COc1ccc(Br)cc1CN1CCN(C(=O)c2cccc(OC)c2OC)CC1 . Value?
6.66

Endpoint output: inhibition of Cc1ccc(/C=N/NC(=O)Cn2nc(C)c(Br)c2C)o1 . Value?
5.02

Endpoint output: inhibition of CC(O)CN(Cc1ccc(Cl)cc1)CC(C)O (stereo not drawn) . Value?
4.36

Endpoint output: inhibition of CC(CN1CCOCC1)c1ccccc1 (stereo not drawn) . Value?
7.84

Endpoint output: inhibition of Brc1ccc(Nc2c3c(nc4ncnn24)CCC3)cc1 . Value?
-0.85

Endpoint output: inhibition of O=C(CNS(=O)(=O)c1ccc(Br)s1)N1CCN(C(=O)c2ccco2)CC1 . Value?
5.22

Endpoint output: inhibition of CCCNC(=O)c1ccc(Cl)c(Cl)c1 . Value?
3.09

Endpoint output: inhibition of CCn1c(=O)c(=O)n(CC)c2cc(S(=O)(=O)N3CCc4ccccc43)ccc21 . Value?
8.33

Endpoint output: inhibition of O=C(NC1CCCCC1)C1CC(=O)N(CCc2ccccc2)C1 (stereo not drawn) . Value?
1.77

Endpoint output: inhibition of O=C(c1cccc(N2CCCC2=O)c1)N1CCOCC1 . Value?
8.03

Endpoint output: inhibition of CC(=O)Nc1ccc(S(=O)(=O)N2CCSCC2)cc1 . Value?
3.77

Endpoint output: inhibition of CCCNC(=O)c1ccccc1NC(=O)CSCc1ccc(OC)cc1 . Value?
0.92

Endpoint output: inhibition of COCCN(C(=O)c1ccco1)c1nnc(-c2ccc(OC)cc2)s1 . Value?
7.18

Endpoint output: inhibition of O=C(NCCCN1CCCCC1)c1ccc2c(c1)NC(=O)C(N1CCOCC1)S2 (stereo not drawn) . Value?
2.66

Endpoint output: inhibition of Cn1cc(S(=O)(=O)N2CCN(c3ccc(F)cc3)CC2)c(=O)n(C)c1=O . Value?
3.88

Endpoint output: inhibition of O=S(=O)(NCCNS(=O)(=O)c1ccccc1)c1ccccc1 . Value?
15.1

Endpoint output: inhibition of O=C(CCN1c2ccccc2Sc2ccccc21)Nc1ccccc1 . Value?
4.62
